The measured values listed here are drawn from patent US10703746B2.

molecular target: IDH1 R132H (Homo sapiens, UniProt O75874, R132H); test: IDH1 R132H enzymatic assay (NADPH depletion coupled to diaphorase/resazurin); type: biochemical; details: IDH1 R132H enzymatic inhibition, IC50 class
Sequence (O75874 whole entry R132H): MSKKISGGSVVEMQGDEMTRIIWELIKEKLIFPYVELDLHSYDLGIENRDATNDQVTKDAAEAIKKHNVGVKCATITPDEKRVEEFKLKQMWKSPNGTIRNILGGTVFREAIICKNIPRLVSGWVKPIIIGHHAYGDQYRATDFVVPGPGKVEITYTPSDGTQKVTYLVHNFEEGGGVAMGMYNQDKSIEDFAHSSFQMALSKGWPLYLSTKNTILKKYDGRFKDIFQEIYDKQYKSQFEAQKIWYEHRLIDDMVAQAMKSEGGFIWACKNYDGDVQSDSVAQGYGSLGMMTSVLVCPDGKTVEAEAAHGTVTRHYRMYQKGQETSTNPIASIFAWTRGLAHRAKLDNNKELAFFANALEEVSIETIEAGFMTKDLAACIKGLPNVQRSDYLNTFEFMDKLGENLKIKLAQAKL
pIC50: −log10 of the molar value.
Measured pIC50, listed per entry.

# annotated cases, reported pIC50 shown
[[record]]
molecule = "CCc1cccc(CC)c1-n1c(CC(C)C)c(C(=O)N2CCNCC2)cc(-c2nc(-c3ccc(N4CCNCC4)cc3)c(C)s2)c1=O"
target_system = "IDH1 R132H (Homo sapiens, UniProt O75874, R132H)"
measurement_kind = "pIC50"
obs_value = "< 4.70"

[[record]]
molecule = "CC(C)=Cc1c(C(=O)N2CCNCC2)cc(-c2nc(-c3ccc(Cl)cc3)cs2)c(=O)n1-c1c(Cl)cccc1OC(C)C"
target_system = "IDH1 R132H (Homo sapiens, UniProt O75874, R132H)"
measurement_kind = "pIC50"
obs_value = "> 6.52"


Next:
Challenge: Param item = CCc1cccc(CC)c1-n1c(C(C)C)c(C(=O)N2CCNC(C(=O)O)C2)cc(-c2nc(-c3ccc(Cl)cc3)cs2)c1=O (stereo not drawn) ; retrieve measured pIC50.
Response given: > 6.52
